- TARGET OF ASSAY: T1, c-Met (Homo sapiens, UniProt P08581, DEL964-1010)
- T1 construct: endogenous in cells; host or cells: NCI-H596
- ASSAY DETAILS: Functionality of chimeric antibodies, stimulation of proliferation experiment in NCI-H596 cells
- Assay type: cell-based
ASSAY ENDPOINT: Functionality

INSERT INTO results (molecule, recorded_measurement) VALUES
  ('wt-chi-mAb2: wild-type chimeric anti-c-Met IgG1 antibody, VH SEQ ID NO:3, VL SEQ ID NO:4 (antibody, V domains shown, human IgG1 constant regions; HCVR; LCVR) VH: QVQLQQSGAELVRPGASVKLSCKASGYVFPDYEMHWVKQTPVHGLEWIGAFDPETGDTTYNQNFKGKATLTADKASSTAYMDLRSLTSGDSAVYYCARDYKYLYYYAMDNWGQGTSVTVSS VL: QIVLTQSPAIMSASLGERVTMTCTASSSITSSYLHWYQQKPGSSPKLWIYSTTNLASGVPGRFSGSGSGTSFSLTISSMEAEDAATYYCHQYRRSPLTFGAGTKLELK', 'Partial agonist'),
  ('41C-chi-mAb2: HC-41C chimeric anti-c-Met IgG1 antibody, VH SEQ ID NO:8, VL SEQ ID NO:4 (antibody, V domains shown, IgG1 constant regions; HCVR - VH P41C; LCVR) VH: QVQLQQSGAELVRPGASVKLSCKASGYVFPDYEMHWVKQTCVHGLEWIGAFDPETGDTTYNQNFKGKATLTADKASSTAYMDLRSLTSGDSAVYYCARDYKYLYYYAMDNWGQGTSVTVSS VL: QIVLTQSPAIMSASLGERVTMTCTASSSITSSYLHWYQQKPGSSPKLWIYSTTNLASGVPGRFSGSGSGTSFSLTISSMEAEDAATYYCHQYRRSPLTFGAGTKLELK', 'Partial agonist');
